The binders listed here are annotated with their Inhibition rate (%) at 0.274 nM.
TARGET_OF_ASSAY: T1, CTLA-4-hFc (immunogen A; hFc-labeled CTLA-4 extracellular domain protein) (human, UniProt P16410 36-161)
T1 construct: range 36-161; Made in HEK293 cells, purified on protein A; also called CLTA-4-hFc; CTLA-4 protein; not shown: human IgG Fc fragment (hFc) of the pCpC vector
T1 sequence (looked up): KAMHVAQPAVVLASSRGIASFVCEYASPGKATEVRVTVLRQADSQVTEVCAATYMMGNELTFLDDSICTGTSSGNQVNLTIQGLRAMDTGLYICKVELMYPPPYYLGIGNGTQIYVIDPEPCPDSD
ASSAY_PROTOCOL: ELISA, coated CTLA-4-hFc, competitor biotin-B7.2-hFc
MEASURE: Inhibition rate (%) at 0.274 nM

>>> experimental_value("92C8B6 (chimeric antibody purified from hybridoma supernatant) (antibody, V domains shown, also called mAb42; mAb042) VH: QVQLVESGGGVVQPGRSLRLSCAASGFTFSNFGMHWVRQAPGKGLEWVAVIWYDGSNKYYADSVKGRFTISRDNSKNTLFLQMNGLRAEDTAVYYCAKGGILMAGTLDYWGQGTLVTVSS VL: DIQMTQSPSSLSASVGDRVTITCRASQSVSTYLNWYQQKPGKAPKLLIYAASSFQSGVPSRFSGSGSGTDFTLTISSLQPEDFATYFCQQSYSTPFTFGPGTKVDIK")
60
>>> experimental_value("97A8D1 (chimeric antibody purified from hybridoma supernatant) (antibody, V domains shown, also called mAb49; mAb049) VH: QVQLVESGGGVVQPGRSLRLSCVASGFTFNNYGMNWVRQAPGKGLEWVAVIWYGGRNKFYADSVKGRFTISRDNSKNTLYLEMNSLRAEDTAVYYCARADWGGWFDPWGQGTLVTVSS VL: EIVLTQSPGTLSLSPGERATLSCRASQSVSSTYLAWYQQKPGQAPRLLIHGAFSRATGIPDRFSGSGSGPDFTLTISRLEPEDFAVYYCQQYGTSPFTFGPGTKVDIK")
6
>>> experimental_value("40C4C6 (chimeric antibody purified from hybridoma supernatant) (antibody, V domains shown, also called mAb09; mAb009) VH: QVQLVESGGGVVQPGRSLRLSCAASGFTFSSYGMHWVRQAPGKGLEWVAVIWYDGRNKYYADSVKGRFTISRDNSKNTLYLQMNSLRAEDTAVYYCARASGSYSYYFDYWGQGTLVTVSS VL: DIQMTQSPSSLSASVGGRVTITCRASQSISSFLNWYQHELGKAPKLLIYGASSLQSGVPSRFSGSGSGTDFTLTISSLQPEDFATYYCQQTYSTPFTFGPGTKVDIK")
26.4
